Assayed System: GCase (Homo sapiens, UniProt P04062)
Construct: endogenous in cells
Sequence (P04062 40-536): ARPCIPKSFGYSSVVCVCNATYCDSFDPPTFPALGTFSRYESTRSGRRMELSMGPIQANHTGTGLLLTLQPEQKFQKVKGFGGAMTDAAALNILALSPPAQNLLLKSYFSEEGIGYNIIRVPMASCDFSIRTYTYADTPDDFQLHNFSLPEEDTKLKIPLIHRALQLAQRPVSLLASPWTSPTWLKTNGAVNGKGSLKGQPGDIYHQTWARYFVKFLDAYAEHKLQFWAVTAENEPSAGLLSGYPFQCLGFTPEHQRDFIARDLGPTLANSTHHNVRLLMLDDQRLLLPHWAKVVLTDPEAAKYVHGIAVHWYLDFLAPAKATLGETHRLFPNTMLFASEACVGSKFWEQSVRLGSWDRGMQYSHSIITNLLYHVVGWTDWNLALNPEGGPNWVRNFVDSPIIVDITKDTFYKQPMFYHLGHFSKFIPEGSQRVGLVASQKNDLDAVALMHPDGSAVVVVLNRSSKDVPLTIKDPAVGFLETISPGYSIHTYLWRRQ
Experiment Notes: activation of GCase in a live cell PFB assay in HELA cells
Measure Name: EC50

In [3]: df
Out[3]:
                                   compound  result_value
0  O=C(c1ccc2cc[nH]c2c1)N1C[C@@H]2[C@@H](COc3cccc(C(F)(F)F)n3)[C@@H]2C1   10 to 50 µM
1  COc1ccc(OCC2CCN(C(=O)Nc3ccc(C#N)cc3F)CC2)cc1  50 to 100 µM

// EC50 (GCase (Homo sapiens, UniProt P04062)) for FC(F)Cn1ncc2ncc(N3CCC(F)(F)C(COc4cccnc4C(F)(F)F)C3)nc21 (stereo not shown) = < 10 µM

// EC50 (GCase (Homo sapiens, UniProt P04062)) for c1ccc(OC2CCN(c3cnc4ccccc4n3)CC2)cc1 = 10 to 50 µM

====

Assayed System: GCase (Homo sapiens)
Construct: endogenous in cells
Experiment Notes: activation of GCase in a live cell PFB assay in HELA cells
Measure Name: EC50

>>> print(df.to_string())
                                   compound  result_value
0  FC(F)(F)c1ncccc1OC[C@@H]1[C@H]2CN(c3nccc(-c4nncs4)n3)C[C@@H]12   10 to 50 µM
1   C=CCn1ncc(CN2CCC(COc3ccc(OC)cc3)CC2)c1C      > 100 µM
2  Cc1ccccc1OCC1CCCN(C(=O)c2cnn3c(-c4ccccc4)ccc(Cl)c23)C1 (stereo not shown)   10 to 50 µM

// sample COc1ccc(OCC2CCN(C(=O)COCC3CCCO3)CC2)cc1 (stereo not shown) , its EC50 was 10 to 50 µM

====

EC50: recorded values
Assayed System: GCase (Homo sapiens, UniProt P04062)
Construct: endogenous in cells
Experiment Notes: activation of GCase in a live cell PFB assay in HELA cells

Recorded results for 2 compounds are shown here.
>>> print(df.to_string())
                                   compound  measure_name  result_value
0  COc1ccc(OCC2CCN(c3cncc(C(=O)N4CCCC4)n3)CC2)cc1 [Compound 437]          EC50   10 to 50 µM
1  CC(=O)N1CCC(n2ncc3ncc(N4CCCC(COc5ccccc5C(F)(F)F)C4)nc32)CC1 (centres unmarked) [Compound 111]          EC50       < 10 µM

// sample COc1ccc(OCC2CCN(Cc3ccc(CO)o3)CC2)cc1 [Compound 448] , its EC50 was 10 to 50 µM

// sample COc1ccc(OCC2CCN(C(=O)c3cccc(NC(=O)C(C)C)c3)CC2)cc1 [Compound 446] , its EC50 was 10 to 50 µM

// sample Cc1ccccc1OCC1CCCN(C(=O)c2cnc3c(cnn3-c3ccccc3)n2)C1 (centres unmarked) [Compound 67] , its EC50 was 10 to 50 µM

====

Assayed System: GCase (Homo sapiens, UniProt P04062)
Construct: endogenous in cells
Experiment Notes: activation of GCase in a live cell PFB assay in HELA cells
EC50: recorded values

Recorded results for 5 compounds are shown here.
In [3]: df
Out[3]:
                                   compound                        assayed_system  result_value
0  O=C(c1ccc2ccn(CC3COC3)c2c1)N1CCC[C@H](CCc2ccccc2C(F)(F)F)C1  GCase (Homo sapiens, UniProt P04062)   10 to 50 µM
1  O=C([C@@H]1C[C@H]1c1ccc(F)cc1)N1CCCC(COc2ccccc2)C1 (some centres unmarked)  GCase (Homo sapiens, UniProt P04062)   10 to 50 µM
2  O=C(c1cn(CC2CCCCC2)nn1)N1CCC(OCc2ccccc2)CC1  GCase (Homo sapiens, UniProt P04062)      > 100 µM
3  O=C(c1ccc2cc[nH]c2c1)N1CCC(Oc2cc(C(F)(F)F)ccn2)CC1  GCase (Homo sapiens, UniProt P04062)  50 to 100 µM
4  COc1ccc(OCC2CCN(Cc3c[nH]c(C#N)c3)CC2)cc1  GCase (Homo sapiens, UniProt P04062)       < 10 µM

// EC50 (GCase (Homo sapiens, UniProt P04062)) for CC(C)(c1ccccc1)c1nnc(C(=O)N2CCCC(COc3ccccc3)C2)o1 (centres unmarked) = 10 to 50 µM

// EC50 (GCase (Homo sapiens, UniProt P04062)) for C[C@@H]1CC[C@H](COc2ncccc2C(F)(F)F)CN1c1cnc2cnn(CC(F)F)c2n1 = 10 to 50 µM

// EC50 (GCase (Homo sapiens, UniProt P04062)) for Cn1c(-c2ccc(F)cc2)nc2nc(C(=O)N3C[C@@H]4[C@@H](COc5cccnc5C(F)(F)F)[C@@H]4C3)cnc21 = > 100 µM
